- System: UACC-257
- PROTOCOL SUMMARY: NCI tumour cell line growth inhibition, 48 h
Activity calls are given as the source filed them. No stated cut-off is given here; in the data, active = GI50 up to about 1.1 µM and inactive = higher.
Respond with a class label; see Y = active, N = inactive

Query: recorded result category for Cc1ccc(C)c(NC(=O)CC2SC(Nc3ccccc3Cl)=NC2=O)c1 (stereo unspecified) in this test N

Assay result, entry COc1cc2c(c(OC)c1OC)-c1ccc(SC)c(=O)cc1C(CC(=O)Oc1cccc(F)c1)C2 (stereo unspecified) — outcome? N

Hi team, can someone confirm the assay call for CCOC(=O)c1c(NC(=O)c2cccs2)sc2c1CCC2 ? N

Query: recorded result category for COc1cc(C2[C@H]3C(=O)N(c4ccc(Cc5ccc(N6C(=O)[C@@H]7ON(c8ccccc8)C(c8cc(OC)c(OC)c(OC)c8)[C@@H]7C6=O)cc5)cc4)C(=O)[C@H]3ON2c2ccccc2)cc(OC)c1OC (stereo partly specified) in this test N

// param item: NC(=S)NS(=O)(=O)c1ccc(Cl)cc1Cl ; yields the recorded call N

Recorded test outcome, item COc1cc2ccc3c4cc(OC)c(OC(C)C)cc4c[n+](C)c3c2cc1OC N

Please state the recorded outcome for this molecule: CN(C)c1cccc2c(S(=O)(=O)NCCCNCCN)cccc12 N

Each molecule tested received a call. Report the one for Cn1c(=O)c2nc(/N=N/Nc3nncs3)[nH]c2n(C)c1=O . N

Recorded test call requested for O=S1(=O)C(c2ccccc2)C(N2CCCCC2)C1C1CC2c3ccccc3C1c1ccccc12 (stereo unspecified) N

# outcome recorded in this test, key = C=CCc1cc(-c2n[nH]c(=S)[nH]2)ccc1N/N=N/c1ccc(C(=O)O)cc1 N

Just curious, what result did O=C(CSc1nnc(-c2ccc(/N=C\c3ccc(Cl)cc3)cc2)o1)Nc1ccccc1 get here? N

Hi, sorry to bother you, what did the test record for CCOC(=O)c1sc2c(c1OC(=O)c1ccco1)c(=O)n(-c1ccccc1)c(=S)n2-c1ccccc1 ? N

Which outcome was assigned to Cc1c2ccccc2c(/C=N/NC(=O)CSCC(=O)N/N=C/c2c3ccccc3c(C)c3ccccc23)c2ccccc12 in this test? N

Name the outcome recorded for CN1C(=O)C2C=C3CCCCC3=CC2N(C)C1=O (stereo unspecified) in the assay. N

Look up the recorded call for N#Cc1nc(Sc2cnsn2)c(Sc2cnsn2)nc1C#N in this test. N

For this molecule, state the assay outcome: COC(=O)/C=C/N1CC1 N

Hi team, can someone confirm the assay call for O=[N+]([O-])c1ccc2c(c1)C(N1CCN(CCO)CC1)Cc1ccc(F)cc1S2 (stereo unspecified) ? N

Hi, do you know how C[C@H]1C(=O)O[C@@H]2CCN3CC=C(COC(=O)[C@](C)(O)[C@@]1(C)O)[C@H]23 came out in this test? N

Any idea what this test logged for S=C(N/N=C\C(=N/NC(=S)N1CCCCC1)c1ccccc1)N1CCCCC1 ? N

For this molecule, state the assay outcome: CC(=O)Oc1cc(C(F)(F)F)ccc1C(=O)OC1(C)OC(=O)c2ccc(C(F)(F)F)cc2O1 (stereo unspecified) N

// param item: CC1CC(C)C2OC2(C)C[C@H](C)C(=O)NC(C)C(=O)N(C)[C@H](Cc2c(Br)[nH]c3ccccc23)C(=O)N[C@@H](c2ccc(O)cc2)CC(=O)O1 (stereo partly specified) ; yields the recorded call Y

Record lookup: outcome of this test for COc1ccc2c(c1OC)C(C(Cl)(Cl)Cl)N1CCc3cc4c(cc3C1=C2)OCO4 (stereo unspecified) ? N

I'd appreciate the recorded outcome for CCCCCC/C=C\CCCCCCCCCc1cccc(O)c1C(=O)O from this test. N

What is the recorded call for this molecule in the test? C=CCNC(=O)/C=C\C(=O)O N

# lookup: test call for Cc1c(/C=N/NC(=O)c2ccccc2O)c(=O)n(-c2ccccc2)n1C N

Please indicate how the test categorized CN1CC(c2ccccc2)N(CCCCN2CC(c3ccccc3)N(C)CC2c2ccccc2)CC1c1ccccc1 (stereo unspecified) . N

# lookup: test call for CC(=O)O[C@H]1C(=O)[C@@]2(C)C(C(OC(=O)c3ccccc3)[C@]3(O)CC(OC(=O)C(O)C(NC(=O)c4ccc(C(F)(F)F)cc4)c4ccccc4)C(C)=C1C3(C)C)[C@]1(OC(C)=O)CO[C@@H]1C[C@@H]2O (stereo partly specified) Y

Name the outcome recorded for Cn1cnc(S[C@H]2[C@H]3C(=O)C=C4S[C@H]5C[C@]42C2=C(N5)C(=O)c4[nH]cc5c4C2=[N+]3CC5)c1C[C@H](N)C(=O)O in the assay. N

What did the test return for N#CC1=C(N2CCOCC2)CCC1 ? N

Record lookup: outcome of this test for CCC(C)SC1SCC2C(=O)N(C)C3(CC3C)C(=O)OCC(NC(=O)c3nc4ccccc4cc3O)C(=O)NC(C)C(=O)N(C)C1C(=O)N(C)C1(CC1C)C(=O)OCC(NC(=O)c1nc3ccccc3cc1O)C(=O)NC(C)C(=O)N2C (stereo unspecified) ? Y

Hi, do you know how Cc1cc(C)nc(SCC(=O)OC2CC(C)CCC2C(C)C)n1 (stereo unspecified) came out in this test? N

Fill in: this test's call for CNC1=CC(=O)C2=C(C1=O)[C@H]1CC[C@]3(C)C(=O)CC[C@H]3[C@@H]1CC2 is ___ N

How did this test come out for COC(=O)c1ccccc1/N=C/c1ccc(N(CCC#N)S(=O)(=O)c2ccccc2)cc1 ? N

Status in this test for O=C(O)CSC(CC(=O)c1ccc(Cl)cc1)c1ccc(Cl)cc1 (stereo unspecified) ? N

Just curious, what result did COc1ccnc2c1C(=O)c1nc3ccccc3c3ccnc-2c13 get here? Y

Recorded call for Cc1cc(N(CCC#N)CCC#N)ccc1C(=N/NC(=O)c1cc(Cl)ccc1O)/N=N/c1cccc(Cl)c1 ? N

====

- Test system: HOP-62
- PROTOCOL SUMMARY: NCI tumour cell line growth inhibition, 48 h
Activity calls are given as the source filed them. No stated cut-off is given here; in the data, active = GI50 up to about 1.1 µM and inactive = higher.
ASSAY METRIC: GI50

# molecule COc1cc2c3c(c1Oc1nnnn1-c1ccccc1)-c1c(ccc4c1OCO4)C[C@H]3N(C)CC2 ; its GI50 = 60.5 µM (inactive)

Reported GI50 of NC(CSc1nc2ccccn2c1[N+](=O)[O-])C(=O)O (configuration not stated) : > 100 µM (inactive)

The molecule listed as COc1cccc([C@@]2(O)c3c(ccc(O)c3OC)[C@H]2OC)c1OC shows GI50 equal to 60.5 µM (inactive)

Looking up COc1ccc(-c2cc(O)c3c(C)cc(C)nc3n2)cc1 , I found its GI50 recorded as 26.8 µM (inactive)

According to the records, this molecule O=c1nc(N2CCCC2)nc(N2CCCC2)s1 displays GI50 of > 100 µM (inactive)

The molecule listed as CCCCCNC(=O)c1c(O)[nH]c(=S)[nH]c1=O shows GI50 equal to > 100 µM (inactive)

GI50 reading for Cc1c2ccncc2c(C)c2c1[nH]c1ccc(OC(C)C)cc12 : 1.35 µM (inactive)

Memo: Cc1cc(C)nc(SCC(=O)OC2CC(C)CCC2C(C)C)n1 (configuration not stated) , reported GI50: 11.6 µM (inactive)

The measured GI50 associated with CC(=O)OC1COC(n2c(=S)n(-c3ccccc3)c(=O)c3ccccc32)C(OC(C)=O)C1OC(C)=O (configuration not stated) reads > 100 µM (inactive)

So, CCc1cc2c(Nc3ccccc3)c3c(nc2s1)CCCC3 ? Its GI50 was 79.4 µM (inactive)

GI50 for O=[N+]([O-])/C=C/c1ccc(Cl)cc1Cl is 14.2 µM (inactive)

Lab book: GI50 of CC(=O)Oc1cc(C(F)(F)F)ccc1C(=O)OC1(C)OC(=O)c2ccc(C(F)(F)F)cc2O1 (configuration not stated) noted as > 100 µM (inactive)

Record O=c1[nH]c2cc3[nH]c4ncccc4c(=O)c3cc2[nH]1 . Reported GI50: > 10 µM (inactive)

The molecule identified as NCC#CCNCCCN1CC1 registered its GI50 at > 100 µM (inactive)

For this molecule ( C=CCn1cc(C(=O)NC(=O)NCCCCCOC(=O)CCCCCCCCCCC(=O)OCCCCCNC(=O)NC(=O)c2cn(CC=C)c(=O)n(C)c2=O)c(=O)n(C)c1=O ), measured GI50 is > 100 µM (inactive)

Just so you know, measured GI50 for COc1cccc(-c2cc(=O)c3cc(C)c(C)c(C(=O)O)c3o2)c1 came out at > 100 µM (inactive)

According to the records, this molecule COc1cc(-c2nnc3n2NC=C(C(=O)O)S3)cc(OC)c1OC displays GI50 of > 100 µM (inactive)

# molecule S=C(N/N=C\C(=N/NC(=S)N1CCCCC1)c1ccccc1)N1CCCCC1 ; its GI50 = 2.43 µM (inactive)

Sample O=C(Nc1ccc(Cl)cc1)c1cc(S(=O)(=O)Nc2n[nH]c(=O)n2-c2ccccc2)c(S)cc1Cl ; GI50 observed: > 100 µM (inactive)

Input O=C(Nc1cccc(C(F)(F)F)c1)O/N=C(/Cl)CCl . Output GI50: > 100 µM (inactive)

The molecule identified as CC(C)(C)OC(=O)N/N=C(/N)Cc1ccccc1 registered its GI50 at > 100 µM (inactive)

# GI50 (molecule: N[C@H](C(=O)O)[C@@H]1CC(Br)=NO1 ) is 61.9 µM (inactive)

Numbers sourced from ChEMBL document CHEMBL1201862.
